Biological target: T1, human C5 (human, UniProt P01031 19-1676)
T1 construct: Bought human C5 (EMD #204888, said elsewhere to be purified from plasma); also called hC5; complement component 5
Experiment: SPR, mAb captured via anti-hFc, dissociation at pH7.4 vs pH6.0, 25C
Quantity: t1/2 Ratio pH7.4/pH6.0

Binder: H4H12166P9 (antibody, human IgG4, V domains shown, Histidine-mutated CDR variant of H4H12166P; human IgG4 Fc with S108P) VH: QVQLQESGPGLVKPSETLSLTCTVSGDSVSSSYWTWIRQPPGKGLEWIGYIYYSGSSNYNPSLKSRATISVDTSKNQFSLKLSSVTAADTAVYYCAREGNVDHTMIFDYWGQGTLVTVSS VL: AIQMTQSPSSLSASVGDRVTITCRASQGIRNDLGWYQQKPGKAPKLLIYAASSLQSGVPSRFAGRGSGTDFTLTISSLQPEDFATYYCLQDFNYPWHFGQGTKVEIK
Measurement: 31
--
Binder: H4H12171P (antibody, human IgG4, V domains shown, Human IgG4 Fc with S108P hinge mutation (H4H)) VH: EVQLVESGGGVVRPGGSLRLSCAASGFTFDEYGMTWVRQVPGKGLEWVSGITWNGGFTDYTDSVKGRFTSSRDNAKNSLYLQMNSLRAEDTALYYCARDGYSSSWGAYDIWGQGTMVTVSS VL: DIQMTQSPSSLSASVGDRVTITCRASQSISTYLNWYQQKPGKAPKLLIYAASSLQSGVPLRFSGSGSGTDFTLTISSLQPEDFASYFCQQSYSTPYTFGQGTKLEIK
Measurement: 0.6
--
Binder: H4H12163P (antibody, human IgG4, V domains shown, Human IgG4 Fc with S108P hinge mutation (H4H)) VH: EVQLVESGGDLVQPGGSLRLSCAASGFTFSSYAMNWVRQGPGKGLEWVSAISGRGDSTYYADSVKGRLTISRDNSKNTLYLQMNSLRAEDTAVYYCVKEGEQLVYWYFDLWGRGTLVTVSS VL: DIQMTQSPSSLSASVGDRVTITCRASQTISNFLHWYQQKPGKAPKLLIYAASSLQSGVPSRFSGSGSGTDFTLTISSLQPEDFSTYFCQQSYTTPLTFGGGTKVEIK
Measurement: 1.2
